Test: Pharmacokinetic evaluation in humans
Assay type: in vivo
Settings: human, plasma, 20 mg, noncompartmental, read-out: CL, Mean (SD) (converted)
measure: clearance (mL/min)
Numbers only, in mL/min.

Return clearance (reported value) for this compound: C[C@H](NC(=O)[C@H](CCC(=O)O)NC(=O)CCCC[C@@H]1CCSS1)C(=O)O [RLip-EA-OH, N-(R)-lipoyl-L-glutamyl-L- alanine]
588

###

Test: Pharmacokinetic evaluation in humans
Format: in vivo
Conditions: human, plasma, decreased with increasing dose, read-out: Vss
measure: Vd

Return value of Vd for input C[C@H](NC(=O)[C@H](CCC(=O)O)NC(=O)CCCC[C@@H]1CCSS1)C(=O)O [RLip-EA-OH, N-(R)-lipoyl-L-glutamyl-L- alanine] , no commentary.
12 to 18 L

###

Experiment: Pharmacokinetic evaluation in humans
Type: in vivo
Details: human, plasma, 300 mg, noncompartmental, read-out: Cmax, Minimum, maximum
measure: Cmax

For the compound C[C@H](NC(=O)[C@H](CCC(=O)O)NC(=O)CCCC[C@@H]1CCSS1)C(=O)O [RLip-EA-OH, N-(R)-lipoyl-L-glutamyl-L- alanine] , report Cmax.
32000 to 58100 ng/mL

###

Assay: Pharmacokinetic evaluation in humans
Format: in vivo
Conditions: human, plasma, 60 mg, compartmental, read-out: Vss, Minimum, maximum
measure: Vd

Read the entry C[C@H](NC(=O)[C@H](CCC(=O)O)NC(=O)CCCC[C@@H]1CCSS1)C(=O)O [RLip-EA-OH, N-(R)-lipoyl-L-glutamyl-L- alanine] and write its reported Vd.
10 to 17 L

###

Test: Pharmacokinetic evaluation in humans
Type: in vivo
Settings: human, plasma, 60 mg, noncompartmental, read-out: CL, Median (converted)
measure: clearance (mL/min)
Give bare numbers, in mL/min.

Write down clearance measured for item C[C@H](NC(=O)[C@H](CCC(=O)O)NC(=O)CCCC[C@@H]1CCSS1)C(=O)O [RLip-EA-OH, N-(R)-lipoyl-L-glutamyl-L- alanine]
505

###

Experiment: Pharmacokinetic evaluation in humans
Type: in vivo
Details: human, plasma, 60 mg, compartmental, read-out: Estimated Cmax, Mean (SD)
measure: Cmax (ng/mL)
Give bare numbers, in ng/mL.

Give recorded Cmax. C[C@H](NC(=O)[C@H](CCC(=O)O)NC(=O)CCCC[C@@H]1CCSS1)C(=O)O [RLip-EA-OH, N-(R)-lipoyl-L-glutamyl-L- alanine]
6870

###

Test: Pharmacokinetic evaluation in humans
Format: in vivo
Conditions: human, plasma, 60 mg, compartmental, read-out: Vss, Mean (SD)
measure: Vd
# include the unit after the value

Please report Vd for the following compound: C[C@H](NC(=O)[C@H](CCC(=O)O)NC(=O)CCCC[C@@H]1CCSS1)C(=O)O [RLip-EA-OH, N-(R)-lipoyl-L-glutamyl-L- alanine]
14 L

###

Experiment: Pharmacokinetic evaluation in rats
Assay type: in vivo
Settings: both sexes, plasma; rat; 30 mg/kg IV infusion
measure: Cmax (ng/mL)
Answers are plain numbers, in ng/mL.

Give a short answer stating reported Cmax for C[C@H](NC(=O)[C@H](CCC(=O)O)NC(=O)CCCC[C@@H]1CCSS1)C(=O)O [RLip-EA-OH, N-(R)-lipoyl-L-glutamyl-L- alanine] .
20000

###

Test: Pharmacokinetic evaluation in humans
Type: in vivo
Details: human, plasma, 150 mg, compartmental, read-out: CL, Minimum, maximum
measure: clearance

Please look at this compound and report its clearance: C[C@H](NC(=O)[C@H](CCC(=O)O)NC(=O)CCCC[C@@H]1CCSS1)C(=O)O [RLip-EA-OH, N-(R)-lipoyl-L-glutamyl-L- alanine]
260 to 512 mL/min

Values were extracted from patent US8772250B2.
